Could you please report measured Enzyme Activity Endpoint Assay: Fab′2 for the items listed next?
# Experimental Target: pooled human IgG (human IgG1,2,3 and 4)
One number for each entry, in ng/µL.

For orientation, consider the following solved cases.
PRT-93 (protein) MANQEIRYSEVTPYHVTSVWTKGVTPPAKFTQGEDVFHAPYVANQGWYDITKTFNGKDDLLCGAATAGNMLHWWFDQNKEKIEAYLKKHPDKQKIMFGDQELLDVRKVINTKDDQTNSELFNYFRDKAFPGLSARRIGVMPDLVLDMFINGYYLNVYKTQTTDVNRTYQEKDRRGGIFDAVFTRGDQSKLLTSRHDFKEKNLKEISDLIKKELTEGKALGLSHTYANVRINHVINLWGADFDSNGNLKAIYVTDSDSNASIGMKKYFVGVNSAGKVAISAKEIKEDNIGAQVLGLFTLSTGQDSWNQTN    38
PRT-670 (protein) MQITSVWTKGVTPLTPEQFRNNNEDVFHAPYLPNQGWYDITKAFNGKDNLLCGAATAGNMLHWWFDQNKEEIEAYLKKYPEKQKIIFNNQELFDLRKAINTKDSQTNSALFNYFRDKAFPNLSARQLGVMPDHVLDMFINGYYLNVGKTQSTDVNRPYQDKDKRGGIFDHVFNRGDQTKLLTARHDLKNKTLNDISTLIKQELSSGKALALSHTYANVGISHVINLWGADFNAEGNLEAIYVTDSDDRASIGMKKYYVGRNASGHVAISAKKIEGENLGAQVLGLFTLSSGKEIWQKLSLEHHHHHH    0
PRT-98 (protein) MANQEIRYSEVTPYHVTSVWTKGVTPPAKFTQGEDVFHAPYVANQGWYDITKTFNGKDDLLCGAATAGNMLHWWFDQNKEKIEAYLKKHPDKQKIMFGDQELLDVRKVINTKGDQTNSELFNYFRDKAFPGLSARRLGVMPDLVLDMFINGYYLNVYKTQTTDVNRTYQEKDRRGGIFDAVFTRGDQSKLLTSRHDFKEKNLKEISDLIKKELTEGKALGLSHTYANVRINHVINLWGADFDSNGNLKAIYVTDSDSNASIGMKKYFVGVNSAGKVAISAKEIKEDNIGAQVLGLFTLSTGQDSWNQTN    592
PRT-677 (protein) MQITSVWTKGVIPPTMDQFRYNNYDVFHAPYLPHQGWYDITKTFDGGDNLLCGAATAGNMLHWWFDQNKEYIENYLKKYPEKQKIIFNNQELFDLRKAINTKDSQTNSELFNYFRDKAFGNLSARQKGVMPDLVLDMFINGYYLNLFKTQSTDVNRPNDTRDKRGGFFDHVFGRGDQTKLLTARHDLYNGGLSDISQLIKQELQSGKALAISHTYGNVSSSHVINLWGADFDAEGNLEAIYVTDSDDRSSIGMKKYYVGINASGKVAISAKKIEGENVGAQVLGLFTLSSGKEIWKKLSLEHHHHHH    0
PRT-468 (protein) MITSVWTKGVTPPTDFIKGEDVFHAPYKAGQGWYDITKAFDGGDDLLCGAATAGNMLHWWFDQNKDQIERYLKEHPEKQKINFNGEQMFDVKEAIDTKDSQTNSELFNYFKEKAFPYLSTKHLGVFPDHVLDMFINGYRLSLTNHGPTPVKEGSKDPRGGIFDAVFTRGDQSKLLTSRHDLKNKTLNEISQLIKQELTEGKALGLSHTYANVRINHVINLWGADFDAEGNLEAIYVTDSDSNASIGMKKYFVGVNSAGKVAISAKEIKEDNIGAQVLGLFTLSTGQDIWNQTNLEHHHHHH    957

Hi team, please reply with Enzyme Activity Endpoint Assay: Fab′2 for each item in this list.
1. PRT-324 (protein) MTITSVWTKGVTPPTPEDFRENNEDVLHAPYVANQGWYDITKTFDGKDNLLCGAATAGNMLHWWFDQNKEEIERYLKKHPEKQKIIFGNQELFDVKAAIDTKDSQTNSKLFNYFRDKAFPNLSARQLGVMPDLVLDMFINGYYLNLGKTQSTDVNRPYQDKDKRGGIFDAVFTRGDQTTLLTARHDLKNKGLNEISDLIKQELTEGKALALSHTYANVRINHVINLWGADFDAEGNLIAIYVTDSDANPSIGMKKYFVGRNANGKVAISAKKIEGDNIGAQVLGLFTLSTGQDIWQKLS
2. PRT-456 (protein) MITSVWTKGVTPPTDFIKGEDVFHAPYKAGQGWYDITKAFDGGDDLLCGAATAGNMLHWWFDQNKDQIEAYLKEHPEKQKINFNGEQMFDVKEAIDTKDDQTNSELFNYFKEKAFPYLSTKHLGVFPDHVLDMFINGYRLSLTNHGPTPVKEGSKDPRGGIFDAVFTRGDQSKLLTSRHDLKNKTLNEISQLIKQELTEGKALALSHTYANVRINHVINLWGADFDAEGNLEAIYVTDSDSNASIGMKKYFVGVNSAGKVAISAKEIEDDNIGAQVLGLFTLSTGQDIWNQTNLEHHHHHH
3. PRT-309 (protein) MQITSVWTKGVTPLTPEQFRENNEDVIHAPYLAHQGWYDITKAFDGKDNLLCGAATAGNMLHWWFDQNKTEIEAYLSKHPEKQKIIFGNQELFDLKAAIDTKDSQTNSQLFDYFRDKAFPNLSARQLGVMPDLVLDMFINGYYLNVGKTQSTDVNRPYQDKDKRGGIFDAVFTRGDQTTLLTARHDLKNKGLNDISTIIKQELTEGRALALSHTYANVSISHVINLWGADFDAEGNLEAIYVTDSDANASIGMKKYFVGRNAHGHVAISAKKIEGENIGAQVLGLFTLSSGKDQWQKLS

a:
665
1170
0

These measurements were taken from patent US20250027068.
